Reported log10 of EC50 is given for each of the following binders.
molecular target: BDBV GP [change] (Bundibugyo ebolavirus (BDBV), strain 200706291 Uganda); experiment: ELISA, coated recombinant GP ΔTM
PROPERTY MEASURED: log10 of EC50 (log10 of the value in ng/mL)

{"columns": ["BINDER", "log10 of EC50"],
 "data": [
  ["EBOV-434 (antibody, V domains shown) VH: QVQLVQSGAEVKKPGASVKVSCKASGYTFTGYYMFWVRQAPGQGLEWMGWINPNSGGTNYTQKFQGRVTMTRDTSISTAYMELSRLKSDDTAVYYCARDSGELLFVGSDVWGQGTLVTVSS VL: DIQMTQSPSSVSASVGDRVTITCRASLDISYWLAWYQQKPGKAPKLLIYAASNLQSGVPSRFSGSGSGTDFTLTISSLQPEDFATYYCQQANSFPQTFGQGTRLELK", 2.62],
  ["EBOV-442 (antibody, V domains shown) VH: EVQLVESGGGLVKPGGSLRLSCTGSGGTGFTFKYAGMSWVRQAPGKGPEWIGRIKSRIDGGTTDYAAPVKDRFIVSRDDSRNTLYLQMNSLKTEDTAVYYCATGSGKGPSASFGESYYYYDFINVWGKGTTVTVSS VL: ESVLTQSPGTLSLSPGERATLSCRASQSISRKYLAWYQQKPGQAPRLLIYGSSSRATGIPDRFSGSGSGTDFTLTISRLEPEDFAVYYCHQYESSPWTFGQGTKVEIK", 0.48],
  ["EBOV-507 (antibody, V domains shown) VH: QVQLVQSGAEVKKPGASVKVSCKASGYTFNNYLINWVRQAPGQGLEWMGWINPHSGGTEYAQQFQGRLTVTRDTSIRTAYMELRGLTFDDSAMYYCWIWFRSETFDFWGQGTLVTVSS VL: DIQMTQSPSAMSASVGDRVTITCRASQDISNYLAWFQQKPGQGPKRLIFEASILHSGVPSRFSGSGSGTEFTLTISSLQPEDFATYYCLQHNTYLTFGQGTKVEIK", 0.60],
  ["EBOV-520 (antibody, V domains shown) VH: QVQLQESGPGLGKPSETLSLSCTVSGASIRGYFWNWIRQPPGKGLEWIGYIHSTGSTNYNPSLKSRVTISVDTSKNQVSLNVNSVTAADTAVYFCARGAWNVATVYYYYGMDVWGQGTLVTVSS VL: EIVLTQSPGTLSLSPGERATLSCRASQSVSSSYFAWYQQKPGQAPRLLISGTSTRAPGIPDRFSGSGSGTDFTLTISRLEPEDFAVYFCQQYGNSLYTFGQGTKLEIK", 1.86],
  ["EBOV-446 (antibody, V domains shown) VH: QVQLVQSGAEVKKPGASVKVSCKASGYTFTDYYIYWVRQAPGQGLEWMGWLNPNSGGTDYAQKFQGRVTMTRDTSIRTAYMDLSRLRSDDTAVYYCARGRRHGAYVDWGQGTLVTVSS VL: DIQLTQSPSFLSASVGDRVTITCRASQGISTYLAWYQQKPGKAPNLLIYDTSTLQSGVPSRFSGSASGTEFTLTISSLQPEDFATYYCQQLNFYLGGLTFGQGTRLEIK", 0.30],
  ["EBOV-524 (antibody, V domains shown) VH: QVQLVESGGGVVQPGGSLRLSCAASGFKFSTYGMNWVRQVPGQGLEWVSFVRHDGSNKYYSDSVKGRFTIFRDNSNNKLYLQMNNLRAEDTAVYYCAKDVLDCSRADCFIYYYYMDVWGKGTLVTVSS VL: DIQMTQSPSSVSASPGDRVTITCRASQTISGWLAWYQQKPGKAPKLLIYDVSTLQSGVPSRFSGGGSGTEFTFTISSLQPEDYATYFCQQGNRIPLSFGGGTRVEIK", 2.16],
  ["EBOV-451 (antibody, V domains shown) VH: EVQLVESGGSVVRPGGSLRLSCAASGFKFDEYGMSWVRQAPGKGLEWVSGITWNGGVRTYADSVKGRFTISRDNAKNSVYLQMKSLRGEDTALYYCVSWGERYDAYFDYWGQGTLVTVSS VL: EIVLTQSPGSLSLSPGERATLSCRASQSVNSRYFAWYQQRPGQAPRLLIYATSTRATGIPDRFSGSGSGTDFTLTISRLEPEDFAVYSCQQYGSSPYTFGQGTKLEIK", 0.85]
]}
